// cross-source set; read-out = pIC50; system = Tyrosine-protein phosphatase non-receptor type 22 (Homo sapiens, UniProt Q9Y2R2)
Sequence (Q9Y2R2 whole entry): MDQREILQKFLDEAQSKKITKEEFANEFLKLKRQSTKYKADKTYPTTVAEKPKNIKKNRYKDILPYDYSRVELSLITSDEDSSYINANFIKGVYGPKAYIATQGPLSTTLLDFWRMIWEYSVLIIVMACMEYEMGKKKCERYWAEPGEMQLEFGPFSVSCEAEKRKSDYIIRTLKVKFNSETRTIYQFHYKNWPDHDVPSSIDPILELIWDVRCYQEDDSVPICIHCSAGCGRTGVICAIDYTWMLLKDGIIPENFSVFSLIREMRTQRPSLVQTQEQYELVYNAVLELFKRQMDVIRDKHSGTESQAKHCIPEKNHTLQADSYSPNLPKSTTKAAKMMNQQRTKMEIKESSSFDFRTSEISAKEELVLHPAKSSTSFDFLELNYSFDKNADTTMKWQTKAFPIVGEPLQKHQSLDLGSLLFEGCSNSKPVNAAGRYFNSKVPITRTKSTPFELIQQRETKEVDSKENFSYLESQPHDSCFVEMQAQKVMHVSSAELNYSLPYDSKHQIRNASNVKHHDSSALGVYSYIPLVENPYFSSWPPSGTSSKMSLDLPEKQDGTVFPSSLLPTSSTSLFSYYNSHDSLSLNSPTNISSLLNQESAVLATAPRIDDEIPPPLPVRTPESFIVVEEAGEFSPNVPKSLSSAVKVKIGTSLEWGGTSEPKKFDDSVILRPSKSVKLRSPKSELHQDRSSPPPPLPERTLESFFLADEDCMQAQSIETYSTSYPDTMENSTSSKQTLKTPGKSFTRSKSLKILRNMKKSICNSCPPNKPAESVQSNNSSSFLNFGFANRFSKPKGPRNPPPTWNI
Answers are plain numbers, as −log10 of the molar value.

Recorded results for 10 molecules are shown here.
COC(=O)c1cc(-c2ccc(/C=C3\SC(=S)N(CC(=O)O)C3=O)s2)ccc1O ... 5.37
O=C(O)CN1C(=O)/C(=C/c2ccc(-c3ccc(O)c(C(=O)O)c3)s2)SC1=S ... 5.27
Cc1ccc(C(=O)/C=C/c2ccc(C(=O)Nc3ccc(S(=O)(=O)Nc4nccs4)cc3)cc2)cc1 ... 4.98
CCCCCCNc1ccc(S(=O)(=O)N(Cc2ccccc2)c2ccc3oc(C(=O)O)cc3c2)cc1[N+](=O)[O-] ... 5.30
O=C1CN(/N=C/c2ccc(-c3ccc(O)c(C(=O)O)c3)s2)C(=O)N1 ... 4.47
Cc1cccc(C)c1NC(=O)CN1C(=O)S/C(=C\c2cccn2-c2cccc(C(=O)O)c2)C1=O ... 5.32
O=C(O)c1cc2cc(N(Cc3ccc(-c4ccccc4)cc3)S(=O)(=O)c3ccccc3Cl)ccc2o1 ... 4.82
COC(=O)c1cc(-c2ccc(/C=C3\SC(=S)N(CC(=O)O)C3=O)o2)ccc1O ... 4.68
O=C(O)C(Cc1ccccc1)N1C(=O)/C(=C/C2=c3ccccc3=CCC2)SC1=S (centres undefined) ... 4.85
COC(=O)CN1C(=O)S/C(=C\c2ccc(-c3ccc(O)c(C(=O)O)c3)s2)C1=O ... 5.74

Give measured pIC50 for every item shown.
1. O=C(O)CN1C(=O)CN(/N=C/c2ccc(-c3ccc(O)c(C(=O)O)c3)o2)C1=O
2. O=C(O)CCN1C(=O)S/C(=C\c2ccc(-c3ccc(O)c(C(=O)O)c3)o2)C1=O

Result block:
1. 4.44
2. 5.29

Query block: Tell me pIC50 reported for Cc1ccc(NC(=O)CN2C(=O)S/C(=C\c3ccc(-c4cccc(C(=O)O)c4C)o3)C2=O)cc1 (stereo in doubt; form 1)
Result block: 5.48
